Target: UniProt P11168
Sequence (P11168 whole entry): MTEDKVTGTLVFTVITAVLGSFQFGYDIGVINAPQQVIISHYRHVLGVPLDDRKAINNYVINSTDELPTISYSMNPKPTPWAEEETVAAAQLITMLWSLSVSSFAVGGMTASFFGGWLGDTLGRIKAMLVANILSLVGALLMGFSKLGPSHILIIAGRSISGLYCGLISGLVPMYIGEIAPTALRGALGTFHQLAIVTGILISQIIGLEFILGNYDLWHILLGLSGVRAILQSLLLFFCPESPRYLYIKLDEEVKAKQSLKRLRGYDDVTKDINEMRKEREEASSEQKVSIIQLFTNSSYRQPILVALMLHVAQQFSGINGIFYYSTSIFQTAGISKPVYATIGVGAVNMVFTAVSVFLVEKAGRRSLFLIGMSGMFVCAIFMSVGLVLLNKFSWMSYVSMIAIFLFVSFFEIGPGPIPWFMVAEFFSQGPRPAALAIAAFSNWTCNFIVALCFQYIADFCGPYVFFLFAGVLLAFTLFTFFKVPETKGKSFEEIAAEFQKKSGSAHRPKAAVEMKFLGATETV
Experiment: Inhibition of the Glucose Transporter (GLUT2, SLC2A2) as assessed by a FRET based flow cytometry assay using a genetically-encoded biosensor for measuring free glucose (FLII12Pglu-700uDelta6) in HEK293 JumpIN TRex SLC2A2 WT-OE cells (PubChem AID: 1794829)
VALUE_TYPE: EC50 (µM)
Answer with a number only, understood to be in µM.

The molecule OC[C@H]1OC(O)[C@H](O)[C@@H](O)[C@@H]1O (stereo partly specified) on UniProt P11168: EC50 was 527
